ASSAY_COMMENT: Effect of a single 2 g dose of SYM-1219 on the plasma pharmacokinetics of EE2 and NET in healthy female subjects
Type: in vivo, human
REPORTED_CONDITIONS: female, human, plasma, Group B2 Period 2: SYM-1219 2 grams on Day 1, EE2/NET on Day 2; read-out: NET Cmax, Geometric LSMeans
MEASUREMENT_TYPE: Cmax (ng/mL)
Write the value in ng/mL as a bare number.

Note to self: Cmax recorded for `C#C[C@]1(O)CC[C@H]2[C@@H]3CCC4=CC(=O)CC[C@@H]4[C@H]3CC[C@@]21C` was 9.74

###

ASSAY_COMMENT: Effect of a single 2 g dose of SYM-1219 on the plasma pharmacokinetics of EE2 and NET in healthy female subjects
Assay type: in vivo, human
REPORTED_CONDITIONS: female, human, plasma, Group B2 Period 2: SYM-1219 2 grams on Day 1, EE2/NET on Day 2; read-out: NET Cmax, Median
MEASUREMENT_TYPE: Cmax (ng/mL)
Write the value in ng/mL as a bare number.

Note to self: Cmax recorded for `C#C[C@]1(O)CC[C@H]2[C@@H]3CCC4=CC(=O)CC[C@@H]4[C@H]3CC[C@@]21C` was 9.39

Origin of measurements: patent US11684607B2
